This listing pairs compounds with measured viability inhibition at highest dose.
# System: T-47D
# Test details: viability inhibition at highest dose (% inhibition); higher = more growth inhibition
# Measurement setup: 4-OH-tamoxifen in medium 1 µM; 72 h
Property measured: viability inhibition at highest dose

compound="Cc1ccc(C(=O)Nc2ccc(CN3CCN(C)CC3)c(C(F)(F)F)c2)cc1C#Cc1cnc2cccnn12 (drug 1000 nM)" recorded_measurement=33.7
compound="CCCC(CCC)C(=O)O [Valproic acid] (drug 10000 nM)" recorded_measurement=12.5
compound="Cc1cc(Nc2nc(N[C@@H](C)c3ncc(F)cn3)ncc2Cl)[nH]n1 [AZD1480] (drug 1000 nM)" recorded_measurement=-7.24
compound="S=P(N1CC1)(N1CC1)N1CC1 [Thio-TEPA] (drug 100000 nM)" recorded_measurement=-2.96

----------
# Tested on: BT-474
# Test details: drug sensitivity score (DSS) (DSS (dimensionless)); higher = more sensitive; extreme values may be limits of the assay
# Measurement setup: 4-OH-tamoxifen in medium 0 µM; 72 h
This listing pairs compounds with measured drug sensitivity score.
Property measured: drug sensitivity score

compound="CN1CCc2c(c3ccccc3n2Cc2ccc(C(=O)NO)cc2)C1 [Tubastatin A]" target_entity=BT-474 recorded_measurement=0
compound="CS(=O)(=O)OCCCCOS(C)(=O)=O [Busulfan]" target_entity=BT-474 recorded_measurement=0
compound="CC1=C2C[C@H]3[C@@H](CC=C4C[C@@H](O)CC[C@@]43C)[C@@H]2CC[C@]12O[C@@H]1C[C@H](C)CN[C@H]1[C@H]2C [Cyclopamine]" target_entity=BT-474 recorded_measurement=0
compound="COC(=O)C[C@](O)(CCCC(C)(C)O)C(=O)O[C@@H]1C(OC)=C[C@]23CCCN2CCc2cc4c(cc2[C@H]13)OCO4 [Omacetaxine (Homoharringtonine)]" target_entity=BT-474 recorded_measurement=6.72
compound="COc1cc([C@@H]2c3cc4c(cc3[C@@H](O[C@@H]3O[C@@H]5CO[C@@H](C)O[C@H]5[C@H](O)[C@H]3O)[C@H]3COC(=O)[C@H]23)OCO4)cc(OC)c1O [Etoposide]" target_entity=BT-474 recorded_measurement=0
compound="Cc1c(C(=O)Nc2ccc(N3C[C@@H](C)O[C@@H](C)C3)nc2)cccc1-c1ccc(OC(F)(F)F)cc1 [Erismodegib (NVP-LDE225)]" target_entity=BT-474 recorded_measurement=0.627
compound="CC(C)(C)c1cc(NC(=O)Nc2ccc(-c3cn4c(n3)sc3cc(OCCN5CCOCC5)ccc34)cc2)no1 [Quizartinib (AC220)]" target_entity=BT-474 recorded_measurement=0
compound="Cc1c(CN2CCN(C(=O)[C@H](C)O)CC2)sc2c(N3CCOCC3)nc(-c3cnc(N)nc3)nc12 [GDC-0980]" target_entity=BT-474 recorded_measurement=13.5
compound="C=C(c1ccc(C(=O)O)cc1)c1cc2c(cc1C)C(C)(C)CCC2(C)C [Bexarotene]" target_entity=BT-474 recorded_measurement=0
compound=CNCc1ccc(-c2[nH]c3cc(F)cc4c3c2CCNC4=O)cc1 target_entity=BT-474 recorded_measurement=0
compound="CCCC(CCC)C(=O)O [Valproic acid]" target_entity=BT-474 recorded_measurement=0
compound="CC(C)(C#N)c1cc(Cn2cncn2)cc(C(C)(C)C#N)c1 [Anastrozole]" target_entity=BT-474 recorded_measurement=0
compound="Cc1ccc(-n2nc(C(C)(C)C)cc2NC(=O)Nc2ccc(OCCN3CCOCC3)c3ccccc23)cc1 [Doramapimod (BIRB 796)]" target_entity=BT-474 recorded_measurement=0
compound="COc1cc(CCc2cc(NC(=O)c3ccc(N4CC(C)NC(C)C4)cc3)n[nH]2)cc(OC)c1 (stereo not given) [AZD4547]" target_entity=BT-474 recorded_measurement=0
compound="COc1cc2c(N3CCN(C(=O)Nc4ccc(OC(C)C)cc4)CC3)ncnc2cc1OCCCN1CCCCC1 [Tandutinib]" target_entity=BT-474 recorded_measurement=0
